Below, each entry is listed alongside its reported Population Mitotic Cells (%).
Tested on: U2OS
Experiment: Multiplex assay against U2OS
Type: toxicity, cell-based
Conditions: human, 24 h, 1 µM, compound concentration 1 uM, replicate 2
Experimental Endpoint: Population Mitotic Cells (%)

[[record]]
molecule = "CC(/C=C1\\SC(=S)N(CCCC(=O)Nc2ccc(C(=O)O)c(O)c2)C1=O)=C\\c1ccccc1"
unit_symbol = "%"
endpoint_result = 45

[[record]]
molecule = "CCOC(=O)CCNc1cc(N2CCc3ccccc3CC2)nc(-c2ccccn2)n1"
unit_symbol = "%"
endpoint_result = 83

[[record]]
molecule = "CC[C@H](Nc1ncnc2[nH]cnc12)c1nc2cccc(F)c2c(=O)n1-c1ccccc1 [IDELALISIB]"
unit_symbol = "%"
endpoint_result = 57

[[record]]
molecule = "CC(Cc1ccc(O)c(O)c1)C(C)Cc1ccc(O)c(O)c1 (stereo not given) [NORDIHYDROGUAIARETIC ACID]"
unit_symbol = "%"
endpoint_result = 100

[[record]]
molecule = "Cc1c(Nc2ccc(S(=O)(=O)N3CCN(C)CC3)cc2F)nc2ccc(-c3cnn(C4CC4)c3)cn2c1=O"
unit_symbol = "%"
endpoint_result = 88


* * *

Tested on: Fibroblast
Assay: Multiplex assay against human fibroblast
Format: toxicity, cell-based
Details: 24 h, 10 µM, compound concentration 10 uM, replicate 2
Experimental Endpoint: Population Healthy Nuclei (%)

[[record]]
compound = "Cc1ccc(NC(=O)Nc2cc(C(F)(F)F)ccc2F)cc1Nc1ccc2c(c1)NC(=O)/C2=C\\c1ccc[nH]1"
measured_on = "Fibroblast"
experimental_endpoint = "Population Healthy Nuclei (%)"
unit_symbol = "%"
endpoint_result = 41

[[record]]
compound = "CCOc1ccn(-c2ccc(F)cc2)c(=O)c1C(=O)Nc1ccc(Oc2ccnc(N)c2Cl)c(F)c1 [BMS-777607]"
measured_on = "Fibroblast"
experimental_endpoint = "Population Healthy Nuclei (%)"
unit_symbol = "%"
endpoint_result = 35

[[record]]
compound = "CC[C@@H]1C(=O)N(C)c2cnc(Nc3ccc(C(=O)NC4CCN(C)CC4)cc3OC)nc2N1C1CCCC1 [BI-2536]"
measured_on = "Fibroblast"
experimental_endpoint = "Population Healthy Nuclei (%)"
unit_symbol = "%"
endpoint_result = 28

[[record]]
compound = "N#Cc1cccc(C(=O)Nc2cc(-c3ccccc3)nn2-c2ccccc2)c1"
measured_on = "Fibroblast"
experimental_endpoint = "Population Healthy Nuclei (%)"
unit_symbol = "%"
endpoint_result = 67


* * *

Tested on: Fibroblast
Test: Multiplex assay against human fibroblast
Type: toxicity, cell-based
Conditions: 12 h, 1 µM, compound concentration 1 uM, replicate 1
Decision: Population Tubulin-Different-Phenotype (%) compared against 20%; not below it gives YES, below it gives NO.

[[record]]
compound = "Cc1c(Nc2ccc(S(=O)(=O)N3CCN(C)CC3)cc2F)nc2ccc(Nc3cnn(C4CC4)c3)cn2c1=O"
discrete_label = "YES"

[[record]]
compound = "Cc1ccc(NC(=O)Nc2cc(C(F)(F)F)ccc2F)cc1Nc1ccc2c(c1)NC(=O)/C2=C\\c1ccc[nH]1"
discrete_label = "YES"

[[record]]
compound = "Cl.NC[C@@H]1O[C@H](C23CC4CC(CC(C4)C2)C3)Cc2c1ccc(O)c2O"
discrete_label = "YES"

[[record]]
compound = "Cc1c(Nc2ccc(S(=O)(=O)N3CCN(C)CC3)cc2F)nc2ccc(-c3cnn(C4CC4)c3)cn2c1=O"
discrete_label = "NO"

[[record]]
compound = "C=CC(=O)Nc1cc(-n2c(=O)ccc3cnc4ccc(-c5ccc(NS(C)(=O)=O)cc5)cc4c32)ccc1C"
discrete_label = "YES"

[[record]]
compound = "CC(C)c1cc(Nc2nc(N3CCC[C@H](N)C3)ncc2C(N)=O)cc(C(C)C)n1"
discrete_label = "YES"

[[record]]
compound = "NC(=O)c1ccc2nc(-c3ccc(C4(N)CCC4)cc3)c(-c3ccccc3)n2n1 [BAY-1125976]"
discrete_label = "YES"

[[record]]
compound = "CCOc1ccn(-c2ccc(F)cc2)c(=O)c1C(=O)Nc1ccc(Oc2ccnc(N)c2Cl)c(F)c1 [BMS-777607]"
discrete_label = "YES"

[[record]]
compound = "CC(C)[C@H](CO)Nc1nc(Nc2cccc(Cl)c2)c2ncn(C(C)C)c2n1 [PURVALANOLA]"
discrete_label = "YES"

[[record]]
compound = "CC(Cc1ccc(O)c(O)c1)C(C)Cc1ccc(O)c(O)c1 (stereo not given) [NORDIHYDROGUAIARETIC ACID]"
discrete_label = "NO"

